Entries annotated with measured CC50
Test Protocol: Morphological cytotoxicity in LLC-MK2 cells
Assay type: cell-based
Experimental Conditions: monkey, 33° C., examined at 48, 72, 96 and 120 h, read-out: CD50 (lowest concentration that caused morphological cytotoxicity by 50% or more)
Counter-ions that a name gives are not always drawn.
Attribute Measured: CC50 (µg/mL)

• Cl.Cl.Clc1cc2nc(CNc3ccncc3)[nH]c2cc1Cl [Compound VII, dihydrochloride] = 177
• CCc1ccc2[nH]c(CNc3ccncc3)nc2c1 [Compound X, dihydrochloride] = 354
• COc1ccc2[nH]c(CNc3ccncc3)nc2c1 [Compound IV, dihydrochloride] = 1770
• FC(F)(F)c1ccc2[nH]c(CNc3ccncc3)nc2c1 [Compound IX, dihydrochloride] = 354

----------
Test Protocol: Morphological cytotoxicity in LLC-MK2 cells
Assay type: cell-based
Experimental Conditions: monkey, 33° C., examined at 48, 72, 96 and 120 h, read-out: CD50 (lowest concentration that caused morphological cytotoxicity by 50% or more)
Structures can show the parent of a compound that is named as a salt.
Attribute Measured: CC50 (mg/L)

- Clc1ccc2[nH]c(CNc3ccncc3)nc2c1 [Compound II, dihydrochloride]: 178
- Cc1cc2nc(CNc3ccncc3)[nH]c2cc1C.Cl.Cl [Compound XII, dihydrochloride]: 707
- Cl.Cl.c1ccc2[nH]c(CNc3ccncc3)nc2c1 [Compound I, dihydrochloride]: 562
- Cc1ccc2[nH]c(CNc3ccncc3)nc2c1 [Compound V, dihydrochloride]: 562

----------
Test Protocol: Morphological cytotoxicity in LLC-MK2 cells
Assay type: cell-based
Experimental Conditions: monkey, 33° C., examined at 48, 72, 96 and 120 h, read-out: CD50 (lowest concentration that caused morphological cytotoxicity by 50% or more)
Counter-ions that a name gives are not always drawn.
Attribute Measured: CC50

- O=[N+]([O-])c1ccc2[nH]c(CNc3ccncc3)nc2c1 [Compound VI, dihydrochloride]: > 100 µg/mL
- Nc1ccc2[nH]c(CNc3ccncc3)nc2c1 [Compound VIII, trihydrochloride]: > 100 µg/mL
- O=C(c1ccccc1)c1ccc2[nH]c(CNc3ccncc3)nc2c1 [Compound III, dihydrochloride]: > 100 µg/mL
